The compounds listed here are annotated with their pEC50.
tested on: Human promyelocytic leukemia (HL60) cells; test: HL-60 cell differentiation (nitro blue tetrazolium reduction); type: cell-based; settings: Homo sapiens, HL-60, 96 h; HL60 cells, 4 days
The value called pEC50 is obtained by taking minus log10 of the concentration in mol/L.

| smiles-text | measurement-type | result-number |
| --- | --- | --- |
| C=C1CC/C(=C/C=C2\CCC[C@]3(C)[C@@H]([C@@H](C)CCCC(C)(C)O)CC[C@@H]23)C[C@H]1O | pEC50 | 9.15 |

Switching to the query record.
Report pEC50 for C=C1CC/C(=C/C=C2\CCC[C@]3(C)[C@@H]([C@H](C)CCCC(C)(C)O)CC[C@@H]23)C[C@H]1O 9.00

* * *

Molecular target: full-length recombinant rat vitamin D receptor (Rattus norvegicus, UniProt P13053)
Construct: Full-length recombinant rat receptor was expressed in E. coli; histidine tag (C); made in house; host or cells: E. coli BL21 (DE3) Codon Plus RIL
Sequence (P13053 1-423): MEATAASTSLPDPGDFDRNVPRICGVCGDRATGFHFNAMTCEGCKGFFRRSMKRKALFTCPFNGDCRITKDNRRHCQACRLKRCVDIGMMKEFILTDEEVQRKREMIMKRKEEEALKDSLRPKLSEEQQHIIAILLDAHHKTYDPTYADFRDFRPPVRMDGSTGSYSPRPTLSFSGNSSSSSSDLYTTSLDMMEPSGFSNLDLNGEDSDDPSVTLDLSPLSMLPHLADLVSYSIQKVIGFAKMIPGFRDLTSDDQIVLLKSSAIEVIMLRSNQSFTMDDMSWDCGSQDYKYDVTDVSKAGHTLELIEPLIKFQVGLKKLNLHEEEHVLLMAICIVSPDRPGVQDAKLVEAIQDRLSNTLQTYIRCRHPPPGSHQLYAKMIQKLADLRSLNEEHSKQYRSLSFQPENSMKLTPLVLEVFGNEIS
Test: Vitamin D receptor competitive binding with [3H]-1,25(OH)2D3
Conditions: full-length recombinant rat VDR; read-out: Ki, competition with [3H]-1,25(OH)2D3 for binding to vitamin D receptor
measurement-type: pKi
The value called pKi is obtained by taking minus log10 of the concentration in mol/L.

Report pKi for C=C1CC/C(=C/C=C2\CCC[C@]3(C)[C@@H]([C@H](C)CCCC(C)(C)O)CC[C@@H]23)C[C@H]1O [3D-MJ] 9.15

* * *

test system: Human promyelocytic leukemia (HL60) cells; assay: HL-60 cell differentiation (nitro blue tetrazolium reduction); assay type: cell-based; settings: HL60 cells, 4 days
measurement-type: pEC50
The value called pEC50 is obtained by taking minus log10 of the concentration in mol/L.

Report pEC50 for C=C1/C(=C\C=C2/CCC[C@]3(C)[C@@H]([C@H](C)CCCC(C)(C)O)CC[C@@H]23)C[C@@H](O)C[C@@H]1O [1α,25-dihydroxyvitamin D3, reference compound] 8.70
